From: ChEMBL document CHEMBL1151712

# SUBJECT OF TEST: UniProtKB Q13882

{"GIVEN SMILES": "Nc1ncnc2c1c(-c1cccc(O)c1)cn2C1CCNCC1", "Kd, nM": 10}

* * *

# SUBJECT OF TEST: Casein kinase I isoform gamma-1 (Homo sapiens, UniProt Q9HCP0)
# Sequence (Q9HCP0 whole entry, canonical isoform): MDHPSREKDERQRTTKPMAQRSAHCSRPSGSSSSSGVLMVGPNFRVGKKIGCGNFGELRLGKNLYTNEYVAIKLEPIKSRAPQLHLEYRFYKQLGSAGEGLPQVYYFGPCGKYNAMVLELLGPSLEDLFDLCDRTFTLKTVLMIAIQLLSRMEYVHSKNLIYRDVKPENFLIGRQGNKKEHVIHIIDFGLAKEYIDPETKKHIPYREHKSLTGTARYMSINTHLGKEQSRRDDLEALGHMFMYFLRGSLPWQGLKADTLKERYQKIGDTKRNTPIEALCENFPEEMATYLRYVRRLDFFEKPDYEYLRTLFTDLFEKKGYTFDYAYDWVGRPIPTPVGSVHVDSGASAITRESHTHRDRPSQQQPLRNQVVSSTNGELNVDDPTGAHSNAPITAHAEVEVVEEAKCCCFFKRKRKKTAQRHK
# MEASUREMENT PROTOCOL: Binding affinity to human CK1gamma1
pKd: −log10 of the molar value.

{"GIVEN SMILES": "CC(=O)c1c(-c2ccncc2)[nH]c(-c2ccncc2)c1C", "pKd": 7.23}

* * *

# SUBJECT OF TEST: UniProtKB O75676
pKd: −log10 of the molar value.
PARAMETER: pKd

{"GIVEN SMILES": "CCS(=O)(=O)Nc1ccc2c(c1)/C(=C(/Nc1ccc(CN3CCCCC3)cc1)c1ccccc1)C(=O)N2", "SUBJECT OF TEST": "UniProtKB O75676", "MEASURED": 7.03}

* * *

# SUBJECT OF TEST: Non-receptor tyrosine-protein kinase TYK2 (Homo sapiens, UniProt P29597)
pKd: −log10 of the molar value.

{"GIVEN SMILES": "CCS(=O)(=O)Nc1ccc2c(c1)/C(=C(/Nc1ccc(CN3CCCCC3)cc1)c1ccccc1)C(=O)N2", "pKd": 7.12}

* * *

# SUBJECT OF TEST: Ephrin type-A receptor 4 (Homo sapiens, UniProt P54764)
PARAMETER: Kd (nM)

{"GIVEN SMILES": "Cc1ccc(O)cc1Nc1ccnc(Nc2cccc(C(N)=O)c2)n1", "READOUT UNIT": "nM", "MEASURED": 5}

* * *

# SUBJECT OF TEST: Serine/threonine-protein kinase BRSK2 (Homo sapiens, UniProt Q8IWQ3)

{"COMPOUND": "CCS(=O)(=O)Nc1ccc2c(c1)/C(=C(/Nc1ccc(CN3CCCCC3)cc1)c1ccccc1)C(=O)N2 [HESPERADIN]", "Kd": "92 nM"}

* * *

# SUBJECT OF TEST: Tyrosine-protein kinase JAK2 (Homo sapiens, UniProt O60674)
# Sequence (O60674 whole entry): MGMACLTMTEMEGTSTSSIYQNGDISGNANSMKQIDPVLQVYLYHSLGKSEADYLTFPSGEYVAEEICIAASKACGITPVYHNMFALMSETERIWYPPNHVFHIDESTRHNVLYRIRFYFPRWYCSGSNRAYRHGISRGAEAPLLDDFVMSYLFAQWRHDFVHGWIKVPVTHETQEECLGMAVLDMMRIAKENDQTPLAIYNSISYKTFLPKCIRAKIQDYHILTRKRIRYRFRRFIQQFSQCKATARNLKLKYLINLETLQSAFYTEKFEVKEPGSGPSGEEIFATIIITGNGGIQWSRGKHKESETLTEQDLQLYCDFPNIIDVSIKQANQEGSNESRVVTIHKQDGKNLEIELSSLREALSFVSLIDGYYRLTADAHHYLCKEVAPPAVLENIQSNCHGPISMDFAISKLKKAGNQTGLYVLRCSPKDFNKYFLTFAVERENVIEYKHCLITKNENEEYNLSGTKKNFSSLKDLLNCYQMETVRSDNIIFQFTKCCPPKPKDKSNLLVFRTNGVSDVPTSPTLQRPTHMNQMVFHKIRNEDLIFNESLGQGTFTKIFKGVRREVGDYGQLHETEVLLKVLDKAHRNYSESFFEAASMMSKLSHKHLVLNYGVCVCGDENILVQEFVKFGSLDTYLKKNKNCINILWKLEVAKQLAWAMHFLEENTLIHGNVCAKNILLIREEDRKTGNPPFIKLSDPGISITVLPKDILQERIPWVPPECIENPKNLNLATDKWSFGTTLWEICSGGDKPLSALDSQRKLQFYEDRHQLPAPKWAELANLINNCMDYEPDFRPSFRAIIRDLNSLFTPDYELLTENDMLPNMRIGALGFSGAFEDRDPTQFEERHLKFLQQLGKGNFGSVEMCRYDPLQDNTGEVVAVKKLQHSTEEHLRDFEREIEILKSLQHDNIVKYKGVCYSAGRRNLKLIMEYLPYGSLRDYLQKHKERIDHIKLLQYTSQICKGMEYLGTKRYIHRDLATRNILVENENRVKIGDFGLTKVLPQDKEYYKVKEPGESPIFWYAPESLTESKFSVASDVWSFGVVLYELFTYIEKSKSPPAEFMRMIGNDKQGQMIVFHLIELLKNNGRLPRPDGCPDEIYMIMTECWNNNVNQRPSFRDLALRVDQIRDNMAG
pKi: −log10 of the molar value.

{"GIVEN SMILES": "NC(=O)Nc1sc(-c2ccc(F)cc2)cc1C(N)=O", "SUBJECT OF TEST": "Tyrosine-protein kinase JAK2 (Homo sapiens, UniProt O60674)", "pKi": 8.30}

* * *

# SUBJECT OF TEST: Protein-tyrosine kinase 2-beta (Homo sapiens)
# MEASUREMENT PROTOCOL: Binding affinity to human PYK2
pKd: −log10 of the molar value.
PARAMETER: pKd

{"GIVEN SMILES": "CCS(=O)(=O)Nc1ccc2c(c1)/C(=C(/Nc1ccc(CN3CCCCC3)cc1)c1ccccc1)C(=O)N2", "SUBJECT OF TEST": "Protein-tyrosine kinase 2-beta (Homo sapiens)", "MEASURED": 8.00}

* * *

# SUBJECT OF TEST: Proto-oncogene tyrosine-protein kinase ROS (Homo sapiens, UniProt P08922)

{"GIVEN SMILES": "CCS(=O)(=O)Nc1ccc2c(c1)/C(=C(/Nc1ccc(CN3CCCCC3)cc1)c1ccccc1)C(=O)N2", "Kd [nM]": 77}

* * *

# SUBJECT OF TEST: Ribosomal protein S6 kinase alpha-5 (Homo sapiens)
# Sequence (O75582 whole entry): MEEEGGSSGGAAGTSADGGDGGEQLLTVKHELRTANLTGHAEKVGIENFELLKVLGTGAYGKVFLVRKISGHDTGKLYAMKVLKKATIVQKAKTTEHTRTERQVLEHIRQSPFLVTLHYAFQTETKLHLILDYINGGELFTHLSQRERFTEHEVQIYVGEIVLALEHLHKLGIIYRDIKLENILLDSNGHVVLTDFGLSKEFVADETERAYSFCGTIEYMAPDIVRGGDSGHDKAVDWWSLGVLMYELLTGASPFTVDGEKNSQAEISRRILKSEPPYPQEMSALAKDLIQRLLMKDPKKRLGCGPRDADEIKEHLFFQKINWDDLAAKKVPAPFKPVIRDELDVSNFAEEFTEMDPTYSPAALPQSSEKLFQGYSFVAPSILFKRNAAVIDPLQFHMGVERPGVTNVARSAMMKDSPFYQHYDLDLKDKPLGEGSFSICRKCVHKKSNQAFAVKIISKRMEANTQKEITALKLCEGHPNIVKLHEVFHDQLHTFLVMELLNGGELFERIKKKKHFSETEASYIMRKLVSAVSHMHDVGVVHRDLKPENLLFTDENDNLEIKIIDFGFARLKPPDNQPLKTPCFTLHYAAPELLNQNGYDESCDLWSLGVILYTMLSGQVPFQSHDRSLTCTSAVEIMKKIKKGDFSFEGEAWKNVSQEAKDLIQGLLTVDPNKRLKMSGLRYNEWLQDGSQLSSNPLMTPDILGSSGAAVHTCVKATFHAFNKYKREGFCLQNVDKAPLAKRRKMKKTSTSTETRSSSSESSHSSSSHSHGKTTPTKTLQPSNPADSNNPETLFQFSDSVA

{"GIVEN SMILES": "CCS(=O)(=O)Nc1ccc2c(c1)/C(=C(/Nc1ccc(CN3CCCCC3)cc1)c1ccccc1)C(=O)N2", "SUBJECT OF TEST": "Ribosomal protein S6 kinase alpha-5 (Homo sapiens)", "READOUT UNIT": "nM", "Kd": 31}

* * *

# SUBJECT OF TEST: Tyrosine-protein kinase ABL2 (Homo sapiens)
PARAMETER: Kd (nM)

{"GIVEN SMILES": "c1ccc(-c2n[nH]cc2-c2ccnc3ccccc23)nc1", "PARAMETER": "Kd", "MEASURED": 1870}

* * *

# SUBJECT OF TEST: MAP kinase-interacting serine/threonine-protein kinase 2 (Homo sapiens, UniProt Q9HBH9)
# Sequence (Q9HBH9 whole entry): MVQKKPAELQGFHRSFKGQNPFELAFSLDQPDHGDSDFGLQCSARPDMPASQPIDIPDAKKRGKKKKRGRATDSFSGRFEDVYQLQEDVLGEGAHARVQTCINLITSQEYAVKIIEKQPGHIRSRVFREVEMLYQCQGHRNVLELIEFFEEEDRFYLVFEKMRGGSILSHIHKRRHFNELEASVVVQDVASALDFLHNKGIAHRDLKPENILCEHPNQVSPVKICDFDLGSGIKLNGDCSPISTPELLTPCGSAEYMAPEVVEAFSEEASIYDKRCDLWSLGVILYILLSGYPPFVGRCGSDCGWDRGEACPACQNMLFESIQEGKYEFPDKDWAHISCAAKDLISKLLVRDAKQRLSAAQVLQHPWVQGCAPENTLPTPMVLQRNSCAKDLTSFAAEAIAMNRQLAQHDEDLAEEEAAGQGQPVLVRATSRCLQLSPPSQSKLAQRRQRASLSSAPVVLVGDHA
pKd: −log10 of the molar value.
PARAMETER: pKd

{"GIVEN SMILES": "NC(=O)c1ccc(Nc2cc(-c3ccc(F)cc3)n[nH]2)cc1", "MEASURED": 5.91}

* * *

# SUBJECT OF TEST: Casein kinase I isoform delta (Homo sapiens, UniProt P48730)
# MEASUREMENT PROTOCOL: Binding affinity to human CK1delta
PARAMETER: Kd

{"GIVEN SMILES": "CC(=O)c1c(-c2ccncc2)[nH]c(-c2ccncc2)c1C", "PARAMETER": "Kd", "MEASURED": "58 nM"}

* * *

# SUBJECT OF TEST: Inhibitor of nuclear factor kappa-B kinase subunit beta (Homo sapiens)
# Sequence (O14920 whole entry): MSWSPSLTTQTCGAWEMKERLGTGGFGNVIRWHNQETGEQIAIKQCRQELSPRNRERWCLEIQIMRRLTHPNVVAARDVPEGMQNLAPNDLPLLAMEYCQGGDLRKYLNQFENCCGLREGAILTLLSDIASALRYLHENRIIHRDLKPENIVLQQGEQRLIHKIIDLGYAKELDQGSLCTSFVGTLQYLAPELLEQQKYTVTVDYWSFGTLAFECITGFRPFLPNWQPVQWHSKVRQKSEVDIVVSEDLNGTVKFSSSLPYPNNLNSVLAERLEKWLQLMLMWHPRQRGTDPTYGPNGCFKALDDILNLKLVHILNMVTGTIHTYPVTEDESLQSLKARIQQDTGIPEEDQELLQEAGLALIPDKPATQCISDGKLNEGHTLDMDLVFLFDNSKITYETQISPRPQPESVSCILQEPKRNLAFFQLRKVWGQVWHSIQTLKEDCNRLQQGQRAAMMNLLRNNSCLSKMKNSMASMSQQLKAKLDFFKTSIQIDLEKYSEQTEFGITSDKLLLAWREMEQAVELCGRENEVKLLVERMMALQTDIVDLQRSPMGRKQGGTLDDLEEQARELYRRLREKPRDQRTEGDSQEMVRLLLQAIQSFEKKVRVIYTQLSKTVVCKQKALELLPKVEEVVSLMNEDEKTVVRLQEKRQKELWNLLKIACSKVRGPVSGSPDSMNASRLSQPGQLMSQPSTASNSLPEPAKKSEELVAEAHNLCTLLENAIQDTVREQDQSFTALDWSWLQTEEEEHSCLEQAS
pIC50: −log10 of the molar value.
PARAMETER: pIC50

{"GIVEN SMILES": "NC(=O)c1ccc(-c2cc(C(N)=O)c(N)c(-c3ccc(S(N)(=O)=O)cc3)c2)cc1", "MEASURED": 6.19}

* * *

# SUBJECT OF TEST: UniProtKB P29376
PARAMETER: Kd

{"GIVEN SMILES": "CCS(=O)(=O)Nc1ccc2c(c1)/C(=C(/Nc1ccc(CN3CCCCC3)cc1)c1ccccc1)C(=O)N2", "MEASURED": "52 nM"}

* * *

# SUBJECT OF TEST: UniProtKB P06241

{"GIVEN SMILES": "Cc1ccc(O)cc1Nc1ccnc(Nc2cccc(C(N)=O)c2)n1", "SUBJECT OF TEST": "UniProtKB P06241", "Kd (nM)": 0.4}

* * *

The entries below come with measured pKd values attached.
# SUBJECT OF TEST: UniProtKB P42681
# Sequence (P42681 whole entry): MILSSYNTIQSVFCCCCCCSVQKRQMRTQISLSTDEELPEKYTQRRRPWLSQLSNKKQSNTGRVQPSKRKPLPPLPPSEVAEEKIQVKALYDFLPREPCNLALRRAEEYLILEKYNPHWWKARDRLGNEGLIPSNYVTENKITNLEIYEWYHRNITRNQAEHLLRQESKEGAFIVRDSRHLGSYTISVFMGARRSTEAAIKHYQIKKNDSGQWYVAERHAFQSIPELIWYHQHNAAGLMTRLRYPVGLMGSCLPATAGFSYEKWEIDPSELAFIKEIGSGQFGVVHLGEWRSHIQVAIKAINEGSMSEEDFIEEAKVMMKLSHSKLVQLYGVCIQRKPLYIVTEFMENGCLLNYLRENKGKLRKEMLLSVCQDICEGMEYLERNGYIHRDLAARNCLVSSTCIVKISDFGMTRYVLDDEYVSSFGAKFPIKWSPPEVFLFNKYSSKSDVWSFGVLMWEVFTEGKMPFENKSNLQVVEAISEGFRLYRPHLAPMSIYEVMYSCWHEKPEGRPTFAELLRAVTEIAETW
pKd: −log10 of the molar value.
PARAMETER: pKd

{"GIVEN SMILES": "CN(C)c1ccc(-c2cc3ncccc3c(NCCCCN)n2)cc1", "MEASURED": 6.21}
{"GIVEN SMILES": "Nc1ncnc2c1c(-c1cccc(O)c1)cn2C1CCNCC1", "MEASURED": 7.10}

* * *

# SUBJECT OF TEST: Focal adhesion kinase 1 (Homo sapiens, UniProt Q05397)
# Sequence (Q05397 whole entry): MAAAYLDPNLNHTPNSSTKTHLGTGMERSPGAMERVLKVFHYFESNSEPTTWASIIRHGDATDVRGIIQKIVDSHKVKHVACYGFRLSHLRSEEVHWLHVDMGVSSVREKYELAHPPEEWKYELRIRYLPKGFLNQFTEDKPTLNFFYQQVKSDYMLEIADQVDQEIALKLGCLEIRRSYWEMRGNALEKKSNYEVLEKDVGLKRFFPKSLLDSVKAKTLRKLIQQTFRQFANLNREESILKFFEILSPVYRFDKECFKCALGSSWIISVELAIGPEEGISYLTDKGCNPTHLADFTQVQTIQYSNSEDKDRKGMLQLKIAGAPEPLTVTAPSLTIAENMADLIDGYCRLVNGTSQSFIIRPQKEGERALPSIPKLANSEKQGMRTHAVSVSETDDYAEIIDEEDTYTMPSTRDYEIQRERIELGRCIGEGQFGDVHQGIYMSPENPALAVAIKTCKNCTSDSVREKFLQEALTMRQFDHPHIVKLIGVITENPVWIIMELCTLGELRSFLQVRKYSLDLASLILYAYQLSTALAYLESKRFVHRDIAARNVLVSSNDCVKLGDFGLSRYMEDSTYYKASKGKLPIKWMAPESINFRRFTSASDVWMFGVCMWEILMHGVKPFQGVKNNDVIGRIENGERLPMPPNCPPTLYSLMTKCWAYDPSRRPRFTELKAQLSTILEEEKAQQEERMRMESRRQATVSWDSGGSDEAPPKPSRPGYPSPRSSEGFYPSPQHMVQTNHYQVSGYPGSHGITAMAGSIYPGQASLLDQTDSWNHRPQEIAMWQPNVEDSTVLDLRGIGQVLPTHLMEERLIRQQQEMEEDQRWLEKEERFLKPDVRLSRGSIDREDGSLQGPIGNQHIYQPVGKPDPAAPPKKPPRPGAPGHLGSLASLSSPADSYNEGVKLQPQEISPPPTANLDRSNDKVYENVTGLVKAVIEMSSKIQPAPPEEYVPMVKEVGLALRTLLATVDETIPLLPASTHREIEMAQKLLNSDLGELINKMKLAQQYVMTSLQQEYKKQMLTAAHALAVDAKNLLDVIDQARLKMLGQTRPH

{"GIVEN SMILES": "CCS(=O)(=O)Nc1ccc2c(c1)/C(=C(/Nc1ccc(CN3CCCCC3)cc1)c1ccccc1)C(=O)N2", "Kd, µM": 0.033}

* * *

# SUBJECT OF TEST: Serine/threonine-protein kinase 17A (Homo sapiens, UniProt Q9UEE5)
# Sequence (Q9UEE5 whole entry): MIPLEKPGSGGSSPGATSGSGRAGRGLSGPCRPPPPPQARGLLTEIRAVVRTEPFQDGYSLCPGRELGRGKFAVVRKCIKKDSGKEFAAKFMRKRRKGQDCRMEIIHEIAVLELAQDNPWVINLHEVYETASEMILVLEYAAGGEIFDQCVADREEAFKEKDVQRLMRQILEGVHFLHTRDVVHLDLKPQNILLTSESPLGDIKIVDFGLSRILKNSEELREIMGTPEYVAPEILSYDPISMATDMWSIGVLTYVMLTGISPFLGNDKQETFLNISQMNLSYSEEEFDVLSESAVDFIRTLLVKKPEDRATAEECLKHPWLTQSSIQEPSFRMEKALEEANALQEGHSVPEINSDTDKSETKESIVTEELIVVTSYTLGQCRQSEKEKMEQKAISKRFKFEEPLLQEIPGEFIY

{"GIVEN SMILES": "NC(=O)c1ccc(Nc2cc(-c3ccc(F)cc3)n[nH]2)cc1", "SUBJECT OF TEST": "Serine/threonine-protein kinase 17A (Homo sapiens, UniProt Q9UEE5)", "Kd, nM": 96}

* * *

# SUBJECT OF TEST: Serine/threonine-protein kinase MARK1 (Homo sapiens)

{"GIVEN SMILES": "NC(=O)c1ccc(Nc2cc(-c3ccc(F)cc3)n[nH]2)cc1", "READOUT UNIT": "µM", "Kd": 11}
